system: MDA-N; experiment: NCI tumour cell line growth inhibition, 48 h
Give TGI for every item shown.

The cases that follow already have their TGI on record.
O=C(O)CC1OCC=C2C[N+]3([O-])CCC45c6ccccc6NC4C1C2CC53 (stereo not drawn)	> 100 µM
COC(=O)C(CCC1CC(OC)N(C(=O)OCc2ccccc2)C1)N=Cc1ccccc1 (stereo not drawn)	> 100 µM

Now look at this one.
Param item = CC(C)(C)OC(=O)NCCCCCCC(=O)Cc1ccccc1 ; retrieve measured TGI.
> 100 µM

* * *

Give TGI for every item shown.
system: U251 CNS; test: NCI tumour cell line growth inhibition, 48 h

Cn1cc(C2=C(c3c4n(c5ccccc35)CCN(C(N)=S)C4)C(=O)NC2=O)c2ccccc21	11.2 µM
ClC1=C(Cl)C(Cl)=C(Cl)C1=Cc1ccccc1	1.59 µM
O=c1[nH]nc(Cc2ccccc2)n1O	> 100 µM
COC(=O)c1c2c(c3[nH]c4ccccc4c3c1C(=O)OC)C(=O)C1=C(C2=O)C2(Cl)C(Cl)C(Cl)C1(Cl)C2(Cl)Cl (configuration not stated)	7.48 µM
COc1cc(OC)cc(C2C(C#N)=C(N)Oc3c2ccc2ccc(O)cc32)c1 (configuration not stated)	1.89 µM
Oc1ccc2c(c1)OCC1c3ccccc3OC21 (configuration not stated)	> 100 µM
O=C(Nc1ccc(Oc2cccc(Cl)c2)c(Cl)c1)c1cnccn1	> 22.9 µM
C=CCCC1CCCCC/C1=N\N(C)C (configuration not stated)	> 100 µM

For each of the molecules below, state TGI.
1. CC(=NCC(=O)O)c1ccccc1
2. O=S(=O)(c1ccccc1)C1CN2OC1(S(=O)(=O)c1ccccc1)CC21CCCCC1 (configuration not stated)

1. > 100 µM
2. > 100 µM

* * *

system: CAKI-1 renal; experiment: NCI tumour cell line growth inhibition, 48 h
readout kind: TGI

The cases that follow already have their TGI on record.
OC1(c2ccccc2)CCCCCCCCC(O)(c2ccccc2)CCCCCCCC1 (stereo not drawn)	> 100 µM
COC(=O)C(=O)C(C(=O)OC)C(=O)C(=O)Nc1ccccc1C(N)=O (stereo not drawn)	> 100 µM

Now look at this one.
Param item = [N-]=[N+]=NCCCn1c2c(c3ccccc3c1=O)C(=O)c1cc(Br)ccc1-2 ; retrieve measured TGI.
> 100 µM

* * *

test system: SK-MEL-5 melanoma; experiment: NCI tumour cell line growth inhibition, 48 h
readout kind: TGI

O=C(NC1C2CC3CC(C2)CC1C3)c1ccncn1 (stereo not given)	> 100 µM
Cn1nc(N)nc1N=S(C)(C)=N	> 100 µM
COc1ccccc1-c1cc(=O)c2ccccc2n1C1CC1	14.8 µM
CCn1cc(C(=O)N/N=C/c2ccc(Br)cc2)c(=O)c2cc(F)c(N3CCNC(C)C3)c(F)c21 (stereo not given)	4.03 µM

Param item = CCc1nc(N)nc(N)c1-c1ccc(Cc2ccccc2)c([N+](=O)[O-])c1 ; retrieve measured TGI.
> 100 µM

* * *

tested on: SK-OV-3 ovarian; assay: NCI tumour cell line growth inhibition, 48 h
*1 amine or outer side, *2 acyl side, *3 side chain or, on linkers, in order; H or OH if unused. Where a SMILES comes first, the peptide text is derived from it. Bridges are numbered along the chain shown (N, C = ends). [ ]: non-standard residue; d: D form. The star is where a group is joined. Phe(3,5-F2) = N[C@@H](Cc1cc(F)cc(F)c1)C(=O)O; Pro(4R-Me) = C[C@H]1CN[C@H](C(=O)O)C1; aThr = C[C@H](O)[C@H](N)C(=O)O; Pip = O=C(O)[C@@H]1CCCCN1; X10 = Fc1cc(C2CC2)ccc1N*; Abu = CC[C@H](N)C(=O)O; CO = O=C([*:1])[*:2]
readout kind: TGI

COC(=S)OC1CC(n2cnc3c(=O)[nH]cnc32)OC1CO[Si](C)(C)C(C)(C)C (configuration not stated)	> 100 µM
CCC(CN(C)C)C(=O)c1ccco1 (configuration not stated)	> 100 µM
COc1ccc2[nH]c(C(O)(Cc3cccnc3)Cc3cccnc3)cc2c1	> 100 µM
O=c1[nH]c2ccc(N=Cc3c(O)[nH]c4ccccc34)cc2[nH]1	> 25 µM
COc1cc2c(cc1OCCCCCN1CCN(c3cc(=O)oc4ccccc34)CC1)N=C[C@@H]1CCCN1C2=O	> 41.3 µM

For each of the compounds below, state TGI.
1. O=C(/C=C/c1cccc([N+](=O)[O-])c1)c1cccnc1
2. COC(=O)C(C/C=C(\C)c1ccccc1)C(C)=O (configuration not stated)
3. COc1cc2oc(-c3ccc4c(c3)OCO4)c(OC)c(=O)c2c(OC)c1OC
4. CC(C)(C)c1ccc2c(c1)C(=O)c1ccccc1C2=O
5. CCNC(=S)NNC(=O)c1csc(NC(=S)NC2CCCCC2)n1
6. Nc1ncnc2nc(N3CCN(CCO)CC3)[nH]c12

1. > 100 µM
2. > 100 µM
3. > 100 µM
4. > 100 µM
5. 62.3 µM
6. > 100 µM

For each of the compounds below, state TGI.
1. CCCCOC(=O)NC(c1ccccc1)C(O)C(=O)OC1C[C@@]2(O)C(OC(=O)c3ccccc3)C3[C@](C)(C(=O)[C@H](OC(C)=O)C(=C1C)C2(C)C)[C@@H](O)C[C@H]1OC[C@@]31OC(C)=O (some centres not stated)
2. [N-]=[N+]=NCCCn1c2c(c3ccccc3c1=O)C(=O)c1cc(Br)ccc1-2

["> 10 µM", "> 100 µM"]

For each of the compounds below, state TGI.
1. Clc1ccc(CSC2=NCCN2)cc1Cl
2. Oc1ccc(-c2cn3ccsc3n2)cc1O
3. CC1=C[C@H](O)[C@@]2(C)[C@@H]([C@@H]1C)[C@H]1CC[C@@H]3[C@@]4(C)CC[C@H](O)C(C)(C)[C@@H]4CC[C@@]3(C)[C@]1(C)C[C@@H]2O
4. c1cc2sc1CSCCSCCSC2
5. O=S(=O)(c1ccccc1)C1CN2OC1(S(=O)(=O)c1ccccc1)CC21CCCCC1 (configuration not stated)

1: 49.5 µM; 2: > 100 µM; 3: 35.7 µM; 4: > 100 µM; 5: > 100 µM

For each of the compounds below, state TGI.
1. Cc1cccc(NC2=C(Cl)C(=O)N(Cc3ccc(Cl)cc3)C2=O)c1
2. N#C/C(=C\c1c(Cl)cccc1Cl)c1ccccc1
3. COCOc1cc(OC)ccc1C/C=N/O
4. CC[C@@H]1NC(=O)[C@@H]2CCCCN2C(=O)[C@@H]2CCCN2C(=O)[C@@H](NC(=O)[C@H](Cc2cc(F)cc(F)c2)NC(=O)Nc2ccc(C3CC3)cc2F)[C@H](C)OC(=O)[C@@H]2C[C@@H](C)CN2C1=O ({X10-CO}-[Phe(3,5-F2)][aThr]P[Pip][Abu][Pro(4R-Me)]; ester 2-C)
5. O=C1C(=O)c2ccccc2C(O)=C1Cc1ccccc1
6. CCc1nc(N)nc(N)c1-c1ccc(Cc2ccccc2)c([N+](=O)[O-])c1
7. COC(=O)CCC1(NS(=O)(=O)c2ccc(C)cc2)CCC(C(C)(C)C)CC1 (configuration not stated)
8. O=[N+]([O-])c1ccc(N=Nc2c(O)[nH]c3ccc(Br)cc23)cc1

1. 18.7 µM
2. > 65.9 µM
3. > 100 µM
4. 9.83 µM
5. > 100 µM
6. > 83.6 µM
7. > 100 µM
8. 45.6 µM

Param item = Oc1ccc(CCl)c2cccnc12 ; retrieve measured TGI.
> 100 µM
